Molecular target: Glucose transporter (Leishmania mexicana) (UniProt O61059)
Assay: ST_JUDE_LEISH: Cytotoxicity at 2uM final concentration against transgenic Leishmania Mexicana promastigotes LmGT2 that are glucose transport deficient and complemented with the L. Mexicana glucose transporter 2. Activity is measured by DNA content using SYBR green in vitro
Type: functional
In this section we review reported inhibition values for a set of compounds.
Lab book: enter the figure in %, no units written.

{"columns": ["Compound", "inhibition, %"],
 "data": [
  ["CC(Cc1ccc(OCCN2CCN(c3cccc(Cl)c3)CC2)cc1)NCC(O)c1cccc(Cl)c1 (centres undefined)", 1.82],
  ["Cc1ccc(NC(=O)NC2CCN(c3ccnc4ccccc34)C2)cc1 (centres undefined)", 7.34],
  ["CC1(C)[C@H]2CC[C@@H](CNc3nc(NCCc4c[nH]cn4)nc(Nc4ccc(Oc5ccccc5)cc4)n3)[C@@H]1C2", -1.61],
  ["COc1ccc(-c2ccc(NC(=O)c3ccc(Cl)cc3)cc2)cc1CN1CCN(C)CC1", -0.55],
  ["C[C@H](NC(=O)c1c(CN2CCN(C(=O)C(C)(C)C)CC2)c(-c2cccs2)nc2ccccc12)C1CCCCC1", 2.24]
]}

Reported inhibition, compound Nc1ncc(-c2cc3ccccc3o2)c(N)n1 : ____ -0.11

Subsequent entry: COc1ccc2ncc(F)c(CCN3CC[C@@H](CNCc4ccc5c(c4C)OCCO5)C3)c2n1 52.1

Subsequent entry: CN1CCC(NCc2cccc(-c3ccc(S(=O)(=O)NCc4ccccc4)cc3)c2)CC1 10.3

Subsequent entry: CN(C)c1ccc2c(c1)Sc1cc(N(C)C)ccc1N2C(=O)CCCC(=O)O -0.96
